# Species: Cavia porcellus
# EXPERIMENT: Concentration required to inhibit spontaneous tone of guinea pig isolated tracheal spirals
# Format: functional
# CONDITION SET: Trachea
Would you kindly list pIC50 for each of these compounds?
In textbook form, pIC50 equals minus log to base ten of the concentration in mol/L.

Notebook: CC1(C)C=C(c2cccc[n+]2[O-])c2cc(Br)ccc2C1=O , pIC50 read as 6.64

Notebook: CC1(C)CC(c2cccc[n+]2[O-])c2cc(C#N)ccc2C1=O (stereo not given) , pIC50 read as 5.60

Notebook: CC1(C)CC(O)(c2cccc[n+]2[O-])c2cc(C#N)ccc2C1=O (stereo not given) , pIC50 read as 5.14

Notebook: CC1(C)C=C(c2cccc[n+]2[O-])c2cc(C(F)(F)C(F)(F)F)ccc2C1=O , pIC50 read as 6.96

Notebook: CC1(C)C(=O)c2ccc(Br)cc2C2(c3cccc[n+]3[O-])OC12 (stereo not given) , pIC50 read as 5.77

Notebook: CC1(C)C=C(c2cccc[n+]2[O-])c2cc(Cl)c(Cl)cc2C1=O , pIC50 read as 6.68

Notebook: CC1(C)Oc2ccc(C#N)cc2[C@H](N2CCCC2=O)[C@H]1O (single isomer, unassigned) [(-)-CROMAKALIM] , pIC50 read as 6.55

Notebook: CC1(C)C=C(c2cccc[n+]2[O-])c2cc(C#N)ccc2C1=O , pIC50 read as 6.70

* * *

# Species on record: Rattus norvegicus
# EXPERIMENT: Compound was evaluated for its hypotensive activity (decrease in blood pressure) in normotensive rats.
# Type: functional
Would you kindly list ED25 for each of these compounds?
Please answer using a numeric value trailed by its unit.

Notebook: CC1(C)Oc2ccc(C#N)cc2[C@H](N2CCCC2=O)[C@H]1O (single isomer, unassigned) [(-)-CROMAKALIM] , ED25 read as 0.0215 mg/kg

Notebook: CC1(C)C=C(c2cccc[n+]2[O-])c2cc(C#N)ccc2C1=O , ED25 read as 0.079 mg/kg

Notebook: CC1(C)C=C(c2cccc[n+]2[O-])c2cc(Br)ccc2C1=O , ED25 read as 0.0877 mg/kg

Notebook: CC1(C)C=C(c2cccc[n+]2[O-])c2cc(Cl)c(Cl)cc2C1=O , ED25 read as 0.079 mg/kg

Notebook: CC1(C)C=C(c2cccc[n+]2[O-])c2cc(C(F)(F)C(F)(F)F)ccc2C1=O , ED25 read as 0.776 mg/kg

* * *

# Organism: Rattus norvegicus
# EXPERIMENT: Concentration required to inhibit NA-induced contractions in rat portal vein by 50%
# Assay type: functional
OBSERVATION TYPE: pIC50
In textbook form, pIC50 equals minus log to base ten of the concentration in mol/L.

Notebook: CC1(C)C=C(c2cccc[n+]2[O-])c2cc(C(F)(F)C(F)(F)F)ccc2C1=O , pIC50 read as 6.23

Notebook: CC1(C)C=C(c2cccc[n+]2[O-])c2cc(Cl)c(Cl)cc2C1=O , pIC50 read as 6.33

Notebook: CC1(C)CC(c2cccc[n+]2[O-])c2cc(C#N)ccc2C1=O (configuration not stated) , pIC50 read as 6.80

Notebook: CC1(C)Oc2ccc(C#N)cc2[C@H](N2CCCC2=O)[C@H]1O (single isomer, unassigned) [(-)-CROMAKALIM] , pIC50 read as 7.00

Notebook: CC1(C)C=C(c2cccc[n+]2[O-])c2cc(C#N)ccc2C1=O , pIC50 read as 6.05

Notebook: CC1(C)C=C(c2cccc[n+]2[O-])c2cc(Br)ccc2C1=O , pIC50 read as 6.09

Notebook: CC1(C)C=C(c2ccccn2)c2cc(Br)ccc2C1=O , pIC50 read as 4.32
